Several publications report pIC50 on Gastrin/cholecystokinin type B receptor (Mus musculus); those values are gathered here.
Sequence (P56481 whole entry): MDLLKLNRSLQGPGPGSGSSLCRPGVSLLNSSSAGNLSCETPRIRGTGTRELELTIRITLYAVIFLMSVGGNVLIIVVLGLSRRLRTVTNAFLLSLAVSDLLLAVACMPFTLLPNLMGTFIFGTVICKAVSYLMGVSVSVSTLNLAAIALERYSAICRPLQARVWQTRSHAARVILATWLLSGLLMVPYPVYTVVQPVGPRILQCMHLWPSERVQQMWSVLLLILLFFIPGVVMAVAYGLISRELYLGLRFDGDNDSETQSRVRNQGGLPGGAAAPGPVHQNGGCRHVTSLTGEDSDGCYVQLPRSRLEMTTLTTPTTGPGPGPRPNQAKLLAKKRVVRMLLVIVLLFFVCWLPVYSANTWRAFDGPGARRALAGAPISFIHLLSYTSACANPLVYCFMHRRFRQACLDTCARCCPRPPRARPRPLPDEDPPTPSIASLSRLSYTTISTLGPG
A value of pIC50 is the negative decimal logarithm of a concentration given in moles per litre.

[
  {
    "compound": "COC(=O)CCN(CCc1ccccc1)C(=O)C(C)(Cc1c[nH]c2ccccc12)NC(=O)OC1[C@H]2C[C@@H]3C[C@@H](C[C@H]1C3)C2 (single isomer, unassigned)",
    "pIC50": 6.95
  },
  {
    "compound": "CC(C)Oc1cccc(-n2c(NNC(=O)NC3CCCCC3)nc3ccccc3c2=O)c1",
    "pIC50": 6.97
  }
]

Enquiry: State recorded pIC50 with Gastrin/cholecystokinin type B receptor (Mus musculus), entry Cc1cccc(NC(=O)NC2N=C(c3ccccc3)c3ccccc3N(CC(=O)NCC(=O)NCCCOc3cccc(CN4CCCCC4)c3)C2=O)c1 (configuration not stated) , no comment.
Return: 5.44

Enquiry: State recorded pIC50 with Gastrin/cholecystokinin type B receptor (Mus musculus), entry C[C@](Cc1c[nH]c2ccccc12)(NC(=O)OC1C2CC3CC(C2)CC1C3)C(=O)N[C@@]1(C(=O)O)C[C@H]1c1ccccc1 (some centres not stated) , no comment.
Return: 6.85

Enquiry: State recorded pIC50 with Gastrin/cholecystokinin type B receptor (Mus musculus), entry CC(C)C[C@H](NC(=O)[C@H](Cc1c[nH]c2ccccc12)NC(=O)OC(C)(C)C)C(=O)N1C[C@H](c2ccccc2)NC(=O)[C@@H]1CC(=O)O , no comment.
Return: 5.03

Enquiry: State recorded pIC50 with Gastrin/cholecystokinin type B receptor (Mus musculus), entry Cc1cccc(NC(=O)NC2N=C(c3ccccc3)c3ccccc3N(CC(=O)NCCCC(=O)NCCCOc3cccc(CN4CCCCC4)c3)C2=O)c1 (configuration not stated) , no comment.
Return: 5.30

Enquiry: State recorded pIC50 with Gastrin/cholecystokinin type B receptor (Mus musculus), entry CCOC(=O)c1ccc(NC(=O)NNc2nc3ccccc3c(=O)n2-c2cccc(OC(C)C)c2)cc1 , no comment.
Return: 7.24
